B1: library; a variant is named by its letters at N, in order (parent)
chain: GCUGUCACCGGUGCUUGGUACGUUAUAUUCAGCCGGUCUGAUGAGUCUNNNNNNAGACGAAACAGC

variants of: B1; assay: normalized RNA/DNA level with ligand (relative to sTRSVctl = 100) (log10 (% of sTRSVctl)); HEK293T overexpressing SLC46A1; ligand concentration (+) RNA-Seq: 6 mM; higher = less ribozyme self-cleavage, higher mRNA level; conditions: with (6R,S)-folinic acid; ligand present: yes
Listed below: normalized RNA/DNA level with ligand (log10) values for each entry.
// response body must contain only the number

Take a look at these entries with their results.
>  <changes>
UUGAAU

>  <quantitative_result>
2.01

$$$$
>  <changes>
GGACGU

>  <quantitative_result>
1.95

$$$$
>  <changes>
AGCAGC

>  <quantitative_result>
2.03

$$$$
>  <changes>
UCCCGC

>  <quantitative_result>
1.99

$$$$
>  <changes>
GGAGAU

>  <quantitative_result>
1.99

$$$$
>  <changes>
GUUUCA

>  <quantitative_result>
1.99

$$$$
>  <changes>
CCAACU

>  <quantitative_result>
2.05

$$$$
>  <changes>
GCAGCC

>  <quantitative_result>
2.02

$$$$
>  <changes>
GCGGUC

>  <quantitative_result>
2.06

$$$$
>  <changes>
GAUGAU

>  <quantitative_result>
1.98

$$$$

Field request: normalized RNA/DNA level with ligand (log10) | item: `GCCUGC`
2.05
